System: Yap1 mRNA
Experiment: Dose-dependent inhibition of human Yap1 in A-431 cells (Example 7, 10,000 cells per well, RTS36584)
Assay type: cell-based
Details: Table 57, 15.6 nM, free uptake, A-431 cells 10,000 cells per well, 48 hours
Description: Modified oligonucleotides described in the studies above were tested at various doses in A-431 cells. […] After approximately 48 hours, Yap1 mRNA levels were measured as previously described using the Human Yap1 primer-probe set RTS36584. Yap1 mRNA levels were normalized to total RNA content, as measured by RIBOGREEN®. […] IC50s were calculated using a linear regression on a log/linear plot of the data in excel.
Strand notation (5' to 3'): a small letter for the sugar, then the base; units joined by * are phosphorothioate-linked, units joined directly phosphodiester-linked; [ ] holds rarer units or linkages, { } end groups; capitals alone tell only the bases. k = constrained ethyl (cEt); [5mC] = 5-methylcytosine; d = 2'-deoxy (DNA)
Observation type: Yap1 mRNA, % UTC (% UTC)
Numbers only, in % UTC.

A selection of reference data follows.
Yap1 mRNA, % UTC measured on 958491 (kA*k[5mC]*kT*dA*dA*dA*dT*dG*d[5mC]*dT*dG*dT*dG*kA*k[5mC]*kA; antisense) [compound 958491] = 94

Reported Yap1 mRNA, % UTC of 958686 (k[5mC]*kG*k[5mC]*dA*dA*dT*dA*dT*dA*dG*dT*d[5mC]*dT*kA*kT*kA; antisense) [compound 958686] : 75

Sure, the documented Yap1 mRNA, % UTC for 958526 (kA*kG*kT*dA*dA*dG*dA*dA*d[5mC]*dA*dA*dT*d[5mC]*kT*kT*kG; antisense) [compound 958526] is 118

// for each substance below, give its Yap1 mRNA, % UTC
1. 958616 (kG*kG*kT*dG*dG*dT*d[5mC]*dT*dT*dG*dT*dT*d[5mC]*kT*kT*kA; antisense) [compound 958616]
2. 958541 (kG*kT*kA*dT*dT*d[5mC]*dT*dA*dT*d[5mC]*d[5mC]*dA*dG*kG*kG*kT; antisense) [compound 958541]
3. 958551 (k[5mC]*kT*k[5mC]*d[5mC]*dT*dG*dT*dA*dG*dA*d[5mC]*dA*d[5mC]*kA*kT*kA; antisense) [compound 958551]
4. 958731 (kG*k[5mC]*kT*d[5mC]*dT*dG*dT*d[5mC]*dA*dG*dT*dT*dA*kT*k[5mC]*k[5mC]; antisense) [compound 958731]
5. 958786 (kT*kA*kT*dG*dT*d[5mC]*d[5mC]*dT*dA*d[5mC]*dT*dT*dT*k[5mC]*k[5mC]*k[5mC]; antisense) [compound 958786]
6. 958761 (kA*kG*kT*d[5mC]*dT*d[5mC]*dA*dA*d[5mC]*dA*dA*d[5mC]*d[5mC]*kT*kT*k[5mC]; antisense) [compound 958761]
7. 958506 (kG*k[5mC]*kA*dG*dA*dT*dA*dA*dT*d[5mC]*dG*dA*dG*kA*kT*kT; antisense) [compound 958506]

Response:
[78, 81, 95, 85, 106, 84, 80]

Could you report Yap1 mRNA, % UTC for every entry in the following list?
1. 958546 (k[5mC]*kA*kT*dA*d[5mC]*dT*d[5mC]*dT*dA*dG*dT*dT*dA*k[5mC]*kA*kT; antisense) [compound 958546]
2. 958781 (kG*kT*k[5mC]*dA*dT*d[5mC]*dT*dA*dT*dG*dT*dG*dT*k[5mC]*k[5mC]*kT; antisense) [compound 958781]
3. 715483 (k[5mC]*kT*k[5mC]*dT*dT*dT*dG*dG*dA*dA*dA*d[5mC]*d[5mC]*kA*kT*kT) [compound 715483]

Response:
[91, 77, 79]

Provide reported Yap1 mRNA, % UTC for each item, in the same order as listed.
1. 958481 (kG*k[5mC]*kA*dA*d[5mC]*dT*dG*dG*d[5mC]*dT*dT*dA*dT*kG*kG*kA; antisense) [compound 958481]
2. 958466 (kG*kT*k[5mC]*dA*dT*dT*dA*dA*dG*dG*dA*dT*dG*kT*k[5mC]*kA; antisense) [compound 958466]
3. 958486 (kT*kT*kA*dG*dA*dG*d[5mC]*d[5mC]*dA*dA*d[5mC]*dT*dG*kT*kG*kA; antisense) [compound 958486]
4. 958531 (kG*kT*kA*dG*dG*dA*dG*d[5mC]*dA*dA*dG*dT*d[5mC]*kT*kT*kG; antisense) [compound 958531]
5. 958556 (k[5mC]*kA*kA*d[5mC]*d[5mC]*dA*dA*d[5mC]*dT*dA*dT*dT*dA*k[5mC]*kT*kT; antisense) [compound 958556]
6. 958451 (antisense k[5mC]*kA*k[5mC]*dG*dA*dT*d[5mC]*dT*dG*dA*dT*dG*d[5mC]*k[5mC]*k[5mC]*kG) [compound 958451]

Response:
86
84
87
92
103
98
